- Assayed system: serotonin 1A (5-HT1A) receptor (Rattus norvegicus, UniProt P19327)
- Construct: Freezed hippocampus dissected out from rats were homogenized; from tissue; host or cells: rat hippocampus, crude synaptosome membranes
- Assay name: 5-HT1A receptor affinity, 3H-8-OH-DPAT binding test (Experiment 1)
- Condition description: read-out: RECEPTOR BINDING I-C50 5-HT1A; 3H-8-OH-DPAT 0.2 nM, rat hippocampus, 37° C., 10 minutes
Metric name: pIC50
Note on pIC50: it is the negative log10 of concentration, concentration in mol/L.

Entry COC(=O)C1CC2c3cc(C(C)(C)C)cc4[nH]c(SC)c(c34)CC2N(C)C1 (stereo not shown) : reported pIC50 = ?
7.52

====

Some molecules, each annotated with its measured pIC50.
- Assayed system: serotonin 1A (5-HT1A) receptor (Rattus norvegicus, UniProt P19327)
- Construct: Freezed hippocampus dissected out from rats were homogenized; from tissue; host or cells: rat hippocampus, crude synaptosome membranes
- Sequence (P19327 1-422): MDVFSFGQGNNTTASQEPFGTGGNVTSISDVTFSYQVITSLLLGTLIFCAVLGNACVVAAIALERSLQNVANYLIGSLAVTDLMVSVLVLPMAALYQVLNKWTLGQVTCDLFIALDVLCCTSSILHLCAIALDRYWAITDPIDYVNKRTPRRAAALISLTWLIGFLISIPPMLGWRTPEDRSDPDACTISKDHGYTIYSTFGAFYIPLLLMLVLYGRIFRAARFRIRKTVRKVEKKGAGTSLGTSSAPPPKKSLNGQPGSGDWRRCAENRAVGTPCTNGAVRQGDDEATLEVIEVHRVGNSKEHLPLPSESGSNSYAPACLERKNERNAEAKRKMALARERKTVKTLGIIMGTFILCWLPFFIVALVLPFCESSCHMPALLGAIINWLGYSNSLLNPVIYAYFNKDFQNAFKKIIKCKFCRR
- Assay name: 5-HT1A receptor affinity, 3H-8-OH-DPAT binding test (Experiment 1)
API: returns pIC50 as number; meaning -log10 of concentration in mol/L.

Provide the documented pIC50 with serotonin 1A (5-HT1A) receptor (Rattus norvegicus, UniProt P19327) as the system for COC(=O)[C@@H]1C[C@@H]2c3cc(C(C)(C)C)cc4[nH]cc(c34)C[C@H]2N(C)C1
8.00

serotonin 1A (5-HT1A) receptor (Rattus norvegicus, UniProt P19327) / pIC50 / CN1C[C@H](CN)C[C@@H]2c3cc(C(C)(C)C)cc4[nH]cc(c34)C[C@H]21 : value?
8.00

Lab note: need pIC50 with serotonin 1A (5-HT1A) receptor (Rattus norvegicus, UniProt P19327) for entry CN1C[C@H](CNC(=O)C(C)(C)C)C[C@@H]2c3cc(C(C)(C)C)cc4[nH]cc(c34)C[C@H]21 , please look it up.
8.00

====

- Assayed system: dopamine 2 (D2) receptor (Rattus norvegicus, UniProt P61169)
- Construct: Freezed corpus striatum dissected out from rats were homogenized
- Sequence (P61169 whole entry): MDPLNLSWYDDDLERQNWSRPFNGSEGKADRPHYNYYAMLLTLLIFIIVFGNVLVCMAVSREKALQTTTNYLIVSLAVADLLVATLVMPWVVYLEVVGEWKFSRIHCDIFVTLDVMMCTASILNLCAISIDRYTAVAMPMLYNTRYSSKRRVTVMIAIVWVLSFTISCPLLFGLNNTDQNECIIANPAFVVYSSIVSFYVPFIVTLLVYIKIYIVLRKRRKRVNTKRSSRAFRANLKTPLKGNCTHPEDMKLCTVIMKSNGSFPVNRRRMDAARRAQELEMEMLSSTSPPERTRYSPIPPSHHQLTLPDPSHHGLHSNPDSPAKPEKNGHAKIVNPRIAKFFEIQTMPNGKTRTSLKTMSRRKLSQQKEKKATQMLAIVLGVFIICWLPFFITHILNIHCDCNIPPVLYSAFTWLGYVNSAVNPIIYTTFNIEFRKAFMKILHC
- Assay name: D2 receptor affinity, 3H-Spiperone binding test (Experiment 3)
- Condition description: 3H-Spiperone 0.2 nM, corpus striatum, 37° C., 20 minutes; read-out: RECEPTOR BINDING I-C50 D2
Exam item: assign Met to entries whose IC50 is below 2000 nM and Not met to entries at or above 2000 nM. Note that a value of exactly 2000 nM receives Not met.

Molecule	Label
CN1C[C@H](CNC(=O)c2ccncc2)C[C@@H]2c3cc(C(C)(C)C)cc4[nH]cc(c34)C[C@H]21	Not met
CN1C[C@H](CN)C[C@@H]2c3cc(C(C)(C)C)cc4[nH]cc(c34)C[C@H]21	Not met
CN1CC(CNC(=O)Cc2ccccc2)CC2c3cc(C(C)(C)C)cc4[nH]cc(c34)CC21 (centres unmarked)	Met

Does the reported IC50 of CN1C[C@H](CNC(=O)C(C)(C)C)C[C@@H]2c3cc(C(C)(C)C)cc4[nH]cc(c34)C[C@H]21 stay below 2000 nM?
Not met

Below 2000 nM on IC50? Entry COC(=O)[C@@H]1C[C@@H]2c3cc(C(C)(C)C)cc4[nH]cc(c34)C[C@H]2N(C)C1
Not met

Dear reviewer, please state whether CN1C[C@H](CNC(=O)c2cncc(Br)c2)C[C@@H]2c3cc(C(C)(C)C)cc4[nH]cc(c34)C[C@H]21 has IC50 strictly beneath 2000 nM.
Not met

Hello, is IC50 of the following molecule strictly smaller than 2000 nM? CN1C[C@H](CNC(=O)C2CCCCC2)C[C@@H]2c3cc(C(C)(C)C)cc4[nH]cc(c34)C[C@H]21
Met

A record lists COC(=O)C1CC2c3cc(C(C)(C)C)cc4[nH]c(SC)c(c34)CC2N(C)C1 (centres unmarked) . Is its IC50 below 2000 nM?
Not met

For this molecule, is IC50 lower than 2000 nM? CN1C[C@H](CNC(=O)Nc2ccccc2)C[C@@H]2c3cc(C(C)(C)C)cc4[nH]cc(c34)C[C@H]21
Not met

Hello, is IC50 of the following molecule strictly smaller than 2000 nM? CCOC(=O)NC[C@@H]1C[C@@H]2c3cc(C(C)(C)C)cc4[nH]cc(c34)C[C@H]2N(C)C1
Not met

Item CN1C[C@H](CO)C[C@@H]2c3cc(C(C)(C)C)cc4[nH]cc(c34)C[C@H]21 : IC50 beneath 2000 nM, strictly?
Not met
